Tested on: S. aureus 491
Assay: standard broth micro-dilution MIC
Type: cell-based
Settings: Table 2A; strain 491
endpointName: MIC S. aureus 491 (µg/mL)
Just the number in µg/mL, nothing appended.

QUERY: Reported MIC S. aureus 491 for CC(=O)NC1C(OC2c3ccc(c(Cl)c3)Oc3cc4cc(c3OC3OC(CO)C(O)C(O)C3NCc3ccc(OC(F)(F)F)cc3)Oc3ccc(cc3Cl)CC3NC(=O)C(N)c5ccc(O)c(c5)Oc5cc(O)cc(c5)C(NC3=O)C(=O)NC4C(=O)NC3C(=O)NC2C(=O)NC(C(=O)O)c2cc(O)cc(OC4OC(CO)C(O)C(O)C4O)c2-c2cc3ccc2O)OC(CO)C(O)C1O (centres unmarked) : what is it?
RESULT: 2

QUERY: What about this compound? CC(=O)NC1C(OC2c3ccc(c(Cl)c3)Oc3cc4cc(c3OC3OC(CO)C(O)C(O)C3NCc3ccc(C=Cc5ccccc5)cc3)Oc3ccc(cc3Cl)CC3NC(=O)C(NCc5ccc(C=Cc6ccccc6)cc5)c5ccc(O)c(c5)Oc5cc(O)cc(c5)C(NC3=O)C(=O)NC4C(=O)NC3C(=O)NC2C(=O)NC(C(=O)O)c2cc(O)cc(OC4OC(CO)C(O)C(O)C4O)c2-c2cc3ccc2O)OC(CO)C(O)C1O (centres unmarked)
RESULT: 1
